The values you see were collected from paper PMC3057186.

- TEST_SYSTEM: rMOR-1H2 (Rattus norvegicus)
- Sequence (D2CKI5 1-448): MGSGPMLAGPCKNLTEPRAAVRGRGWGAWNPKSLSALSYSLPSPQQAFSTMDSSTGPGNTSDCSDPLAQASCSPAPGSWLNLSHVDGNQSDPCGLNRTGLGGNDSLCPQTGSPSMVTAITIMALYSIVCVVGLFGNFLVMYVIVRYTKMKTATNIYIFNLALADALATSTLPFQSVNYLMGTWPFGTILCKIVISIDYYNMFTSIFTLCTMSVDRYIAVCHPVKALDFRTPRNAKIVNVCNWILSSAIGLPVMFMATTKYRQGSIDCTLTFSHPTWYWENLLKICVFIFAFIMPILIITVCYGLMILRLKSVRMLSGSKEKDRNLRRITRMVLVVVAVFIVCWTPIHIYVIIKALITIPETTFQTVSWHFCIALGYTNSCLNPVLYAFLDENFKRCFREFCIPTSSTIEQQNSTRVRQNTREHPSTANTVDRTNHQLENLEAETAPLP

{"columns": ["LINE_NOTATION", "Kd, nM"],
 "data": [
  ["C[C@@H](NC(=O)[C@@H](N)Cc1ccc(O)cc1)C(=O)NCC(=O)N(C)[C@@H](Cc1ccccc1)C(=O)NCCO", 0.37]
]}

---

- TEST_SYSTEM: rMOR-1i2 (Rattus norvegicus)
pKd: −log10 of the molar value.
ASSAY_READOUT: pKd

{"columns": ["MOLECULE", "TEST_VALUE"],
 "data": [
  ["C[C@@H](NC(=O)[C@@H](N)Cc1ccc(O)cc1)C(=O)NCC(=O)N(C)[C@@H](Cc1ccccc1)C(=O)NCCO [DAMGO]", 9.44]
]}
